Consider the following compounds and their measured viability, T/C readings.
- System: 922993-354-T-J3-PDC complex spheroids, viability, % test/control;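 further: spheroids exposed to the agents for 7 days before readout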
- Experiment summary: Anticancer human tumor 922993-354-T-J3-PDC patient-derived endometrial carcinoma cell line growth inhibition [CLK]
- Condition notes: second compound 3.16 µM; first compound 0.316 µM; active compounds read low

Compound	Measured on	viability, T/C / %
CCCS(=O)(=O)Nc1ccc(F)c(C(=O)c2c[nH]c3ncc(-c4ccc(Cl)cc4)cc23)c1F + CNC(=O)c1ccc(Nc2nc(OC3CCCC3)c3c(-c4ccc5nc(C)oc5c4)c[nH]c3n2)c(OC)c1	922993-354-T-J3-PDC complex spheroids, viability, % test/control	30.3
CC(=O)O[C@H]1C(=O)[C@@]2(C)[C@H]([C@H](OC(=O)c3ccccc3)[C@]3(O)C[C@H](OC(=O)[C@H](O)[C@@H](NC(=O)c4ccccc4)c4ccccc4)C(C)=C1C3(C)C)[C@]1(OC(C)=O)CO[C@@H]1C[C@@H]2O + CN1CCN(c2cc(C(=O)Nc3cc4cc(-c5cnn(C)c5)ccc4cn3)ccn2)CC1	922993-354-T-J3-PDC complex spheroids, viability, % test/control	0.18
COc1c(OCCCN2CCOCC2)ccc2c3n(c(=NC(=O)c4cnc(N)nc4)nc12)CCN3 + CN1CCN(c2cc(C(=O)Nc3cc4cc(-c5cnn(C)c5)ccc4cn3)ccn2)CC1	922993-354-T-J3-PDC complex spheroids, viability, % test/control	1.16
O=c1[nH]cc(F)c(=O)[nH]1 + CNC(=O)c1ccc(Nc2nc(OC3CCCC3)c3c(-c4ccc5nc(C)oc5c4)c[nH]c3n2)c(OC)c1	922993-354-T-J3-PDC complex spheroids, viability, % test/control	31.5
CCCS(=O)(=O)Nc1ccc(F)c(C(=O)c2c[nH]c3ncc(-c4ccc(Cl)cc4)cc23)c1F + CN1CCN(c2cc(C(=O)Nc3cc4cc(-c5cnn(C)c5)ccc4cn3)ccn2)CC1	922993-354-T-J3-PDC complex spheroids, viability, % test/control	0.82
COc1cccc2c1C(=O)c1c(O)c3c(c(O)c1C2=O)CC(O)(C(=O)CO)CC3OC1CC(N)C(O)C(C)O1 (stereo not drawn) + CN1CCN(c2cc(C(=O)Nc3cc4cc(-c5cnn(C)c5)ccc4cn3)ccn2)CC1	922993-354-T-J3-PDC complex spheroids, viability, % test/control	0.67
COc1ccc([C@@H](O)c2cc(-c3ncnc4cc(N5CCOCC5)ccc34)c(F)cc2Cl)nn1 + CNC(=O)c1ccc(Nc2nc(OC3CCCC3)c3c(-c4ccc5nc(C)oc5c4)c[nH]c3n2)c(OC)c1	922993-354-T-J3-PDC complex spheroids, viability, % test/control	34.8
CC1(C)CCC(CN2CCN(c3ccc(C(=O)NS(=O)(=O)c4ccc(NCC5CCOCC5)c([N+](=O)[O-])c4)c(Oc4cnc5[nH]ccc5c4)c3)CC2)=C(c2ccc(Cl)cc2)C1 + CN1CCN(c2cc(C(=O)Nc3cc4cc(-c5cnn(C)c5)ccc4cn3)ccn2)CC1	922993-354-T-J3-PDC complex spheroids, viability, % test/control	0.14
CCN1CCN(Cc2ccc(Nc3ncc(F)c(-c4cc(F)c5nc(C)n(C(C)C)c5c4)n3)nc2)CC1 + CNC(=O)c1ccc(Nc2nc(OC3CCCC3)c3c(-c4ccc5nc(C)oc5c4)c[nH]c3n2)c(OC)c1	922993-354-T-J3-PDC complex spheroids, viability, % test/control	31.6
O=C(c1cc(Cc2n[nH]c(=O)c3ccccc23)ccc1F)N1CCN(C(=O)C2CC2)CC1 + CNC(=O)c1ccc(Nc2nc(OC3CCCC3)c3c(-c4ccc5nc(C)oc5c4)c[nH]c3n2)c(OC)c1	922993-354-T-J3-PDC complex spheroids, viability, % test/control	25.4
O=c1[nH]cc(F)c(=O)[nH]1 + CN1CCN(c2cc(C(=O)Nc3cc4cc(-c5cnn(C)c5)ccc4cn3)ccn2)CC1	922993-354-T-J3-PDC complex spheroids, viability, % test/control	1.19
COc1ccc([C@@H](O)c2cc(-c3ncnc4cc(N5CCOCC5)ccc34)c(F)cc2Cl)nn1 + CN1CCN(c2cc(C(=O)Nc3cc4cc(-c5cnn(C)c5)ccc4cn3)ccn2)CC1	922993-354-T-J3-PDC complex spheroids, viability, % test/control	1.21
CCN1CCN(Cc2ccc(Nc3ncc(F)c(-c4cc(F)c5nc(C)n(C(C)C)c5c4)n3)nc2)CC1 + CN1CCN(c2cc(C(=O)Nc3cc4cc(-c5cnn(C)c5)ccc4cn3)ccn2)CC1	922993-354-T-J3-PDC complex spheroids, viability, % test/control	0.16
COC1C=CCC(C)C(C)S(=O)(=O)NC(=O)c2ccc3c(c2)N(CC2CCC21)CC1(CCCc2cc(Cl)ccc21)CO3 (stereo not drawn) + CN1CCN(c2cc(C(=O)Nc3cc4cc(-c5cnn(C)c5)ccc4cn3)ccn2)CC1	922993-354-T-J3-PDC complex spheroids, viability, % test/control	1.93
CC1COCCN1c1cc(C2(S(C)(=N)=O)CC2)nc(-c2ccnc3[nH]ccc23)n1 (stereo not drawn) + CN1CCN(c2cc(C(=O)Nc3cc4cc(-c5cnn(C)c5)ccc4cn3)ccn2)CC1	922993-354-T-J3-PDC complex spheroids, viability, % test/control	0.16
CC1COCCN1c1cc(C2(S(C)(=N)=O)CC2)nc(-c2ccnc3[nH]ccc23)n1 (stereo not drawn) + CNC(=O)c1ccc(Nc2nc(OC3CCCC3)c3c(-c4ccc5nc(C)oc5c4)c[nH]c3n2)c(OC)c1	922993-354-T-J3-PDC complex spheroids, viability, % test/control	31.1
C=C(F)C(=O)N1CCN(c2nc(OCC3CCCN3C)nc3c2CCN(c2cccc4cccc(Cl)c24)C3)CC1CC#N (stereo not drawn) + CNC(=O)c1ccc(Nc2nc(OC3CCCC3)c3c(-c4ccc5nc(C)oc5c4)c[nH]c3n2)c(OC)c1	922993-354-T-J3-PDC complex spheroids, viability, % test/control	29.9
C=CC(=O)N1CCN(c2nc(=O)n(-c3c(C)ccnc3C(C)C)c3nc(-c4c(O)cccc4F)c(F)cc23)C(C)C1 (stereo not drawn) + CNC(=O)c1ccc(Nc2nc(OC3CCCC3)c3c(-c4ccc5nc(C)oc5c4)c[nH]c3n2)c(OC)c1	922993-354-T-J3-PDC complex spheroids, viability, % test/control	30.6
